experimentNotes: Binding affinity to PKC at 10 uM
parameterMeasured: inhibition (%)
Please reply with the bare figure in % and do not write the unit itself.

For the compound O=C(O)c1ccc(CO/N=C/c2cc(C(=O)NOCCO)c(Nc3ccc(I)cc3F)c(F)c2F)o1 , what inhibition is on record? 27

For the compound O=C(NOCCO)c1cc(/C=N/OCCO)c(F)c(F)c1Nc1ccc(I)cc1F , what inhibition is on record? 1

For the compound O=C(O)CCCO/N=C/c1cc(C(=O)NOCCO)c(Nc2ccc(I)cc2F)c(F)c1F , what inhibition is on record? 25

For the compound COCCCNC(=O)N/N=C/c1cc(C(=O)NOCCO)c(Nc2ccc(I)cc2F)c(F)c1F , what inhibition is on record? 10

For the compound O=C(NOCCO)c1ccc(F)c(F)c1Nc1ccc(I)cc1F , what inhibition is on record? 9

For the compound O=C(NOCCO)c1cc(COCCO)c(F)c(F)c1Nc1ccc(I)cc1F , what inhibition is on record? 0

The origin of these recorded values is ChEMBL document CHEMBL1139272.
